biological target: wild-type Androgen Receptor (AR-wt) (Homo sapiens (Human), UniProt P10275); assay: LNCaP-AR-wt ANT reporter assay (antagonist mode); format: cell-based; details: antagonist mode; pIC50 = −Log10(IC50 in Molar)
Sequence (P10275 whole entry): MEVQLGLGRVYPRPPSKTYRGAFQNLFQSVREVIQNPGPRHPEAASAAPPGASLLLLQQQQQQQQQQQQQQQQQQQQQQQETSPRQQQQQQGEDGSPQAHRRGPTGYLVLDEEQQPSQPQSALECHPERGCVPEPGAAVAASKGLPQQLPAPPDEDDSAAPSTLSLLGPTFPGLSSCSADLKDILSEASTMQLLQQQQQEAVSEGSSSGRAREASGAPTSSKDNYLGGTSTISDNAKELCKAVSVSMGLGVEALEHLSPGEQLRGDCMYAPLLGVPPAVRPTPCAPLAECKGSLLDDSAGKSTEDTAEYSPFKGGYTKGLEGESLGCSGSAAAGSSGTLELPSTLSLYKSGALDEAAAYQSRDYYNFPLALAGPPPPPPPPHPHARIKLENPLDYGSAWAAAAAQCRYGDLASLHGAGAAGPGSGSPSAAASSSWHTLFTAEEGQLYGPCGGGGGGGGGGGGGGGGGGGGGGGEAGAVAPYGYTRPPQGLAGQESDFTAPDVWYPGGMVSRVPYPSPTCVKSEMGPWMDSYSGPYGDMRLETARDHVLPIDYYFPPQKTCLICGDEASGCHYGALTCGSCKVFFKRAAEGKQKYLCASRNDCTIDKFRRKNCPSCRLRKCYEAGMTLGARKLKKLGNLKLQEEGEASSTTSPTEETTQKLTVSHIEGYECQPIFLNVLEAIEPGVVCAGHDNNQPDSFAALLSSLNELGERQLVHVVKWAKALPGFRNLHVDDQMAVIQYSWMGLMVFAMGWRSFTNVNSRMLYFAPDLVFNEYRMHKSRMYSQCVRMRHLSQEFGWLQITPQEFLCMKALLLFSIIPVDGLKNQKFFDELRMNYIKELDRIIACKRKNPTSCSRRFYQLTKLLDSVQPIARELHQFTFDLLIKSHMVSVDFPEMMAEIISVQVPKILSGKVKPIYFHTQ
So basically: is LNCaP-AR-wt ANT pIC50 under 7? Then T. Not under? Then F.

Request: Determine if CC1COC(COc2ccc(N3C(=S)N(c4cnc(C#N)c(C(F)(F)F)c4)C(=O)C34CCC4)cc2)CN1 (stereo not drawn) shows LNCaP-AR-wt ANT pIC50 strictly lower than 7.
Response: F

Request: Record N#Cc1ncc(N2C(=O)C3(CCC3)N(c3ccc(OC4CCNCC4)nc3)C2=S)cc1Cl : is its LNCaP-AR-wt ANT pIC50 strictly below 7?
Response: F

Request: Say whether its LNCaP-AR-wt ANT pIC50 is strictly beneath 7. Entry: CN1C2C=C(c3ccc(N4C(=S)N(c5cnc(C#N)c(C(F)(F)F)c5)C(=O)C45CCC5)cc3)CC1CC2 (stereo not drawn)
Response: T

Request: Answer whether the molecule Cl.N#Cc1ncc(N2C(=O)C3(CCC3)N(c3cnc(OC4CCNCC4)nc3)C2=S)cc1C(F)(F)F has LNCaP-AR-wt ANT pIC50 strictly less than 7
Response: T

Request: Would you kindly verify if LNCaP-AR-wt ANT pIC50 of N#Cc1ncc(N2C(=O)C3(CCC3)N(c3ccc(OC4CCNCC4)nc3)C2=S)cc1C(F)(F)F is strictly less than 7?
Response: F

Request: Field: below-cutoff. Rule: recorded LNCaP-AR-wt ANT pIC50 strictly less than 7. Subject: N#Cc1ncc(N2C(=O)C3(CCC3)N(c3ccc(C4CC5CCC(C4)N5)cc3)C2=S)cc1C(F)(F)F (stereo not drawn)
Response: T

---

target: wild-type Androgen Receptor (AR-wt) (Homo sapiens (Human), UniProt P10275); test: LNCaP-AR-wt ANT reporter assay (antagonist mode); assay type: cell-based; details: maximum % inhibition of R1881 control response over the tested concentration range; read-out: LNCaP-AR-wt ANT MAX % Inh
Would you mind telling me the reported Emax of each entry?
# value in %; strip the unit string

Request: Please provide the recorded Emax for Cc1cc(N2C(=O)C3(CCC3)N(c3ccc(OC4CCN(CCO)CC4)nc3)C2=S)cnc1C#N , tested on wild-type Androgen Receptor (AR-wt) (Homo sapiens (Human), UniProt P10275).
Response: 100

Request: // map COCCN1CCC(Oc2ccc(N3C(=S)N(c4cnc(C#N)c(C)c4)C(=O)C34CCC4)cn2)CC1 to recorded Emax (system: wild-type Androgen Receptor (AR-wt) (Homo sapiens (Human), UniProt P10275))
Response: 101

Request: Write down the reported Emax of N#Cc1ncc(N2C(=O)C3(CCC3)N(c3ccc(OC4CCN(CC(F)(F)F)CC4)cc3)C2=S)cc1C(F)(F)F , test system: wild-type Androgen Receptor (AR-wt) (Homo sapiens (Human), UniProt P10275).
Response: 97.6

Request: Provide value of Emax for this record tested with wild-type Androgen Receptor (AR-wt) (Homo sapiens (Human), UniProt P10275): Cc1cc(N2C(=O)C3(CCC3)N(c3ccc(-c4cnn(C(N)=O)c4)cc3)C2=S)cnc1C#N
Response: 99.1

Request: Recorded Emax for N#CCN1CCC(Oc2ccc(N3C(=S)N(c4cnc(C#N)c(Cl)c4)C(=O)C34CCC4)cc2)CC1 with wild-type Androgen Receptor (AR-wt) (Homo sapiens (Human), UniProt P10275), please?
Response: 98

Request: Tell me reported Emax for N#Cc1ncc(N2C(=O)C3(CCC3)N(c3ccc(OC4CCS(=O)(=O)CC4)cc3)C2=S)cc1C(F)(F)F , tested with wild-type Androgen Receptor (AR-wt) (Homo sapiens (Human), UniProt P10275).
Response: 101

Request: I'm curious: which Emax was measured for N#Cc1ncc(N2C(=O)C3(CCC3)N(c3ccc(OC4CCN(CC(O)CN)CC4)cc3)C2=S)cc1C(F)(F)F (stereo not drawn) tested on wild-type Androgen Receptor (AR-wt) (Homo sapiens (Human), UniProt P10275)?
Response: 102

Request: Kindly state the measured Emax obtained for COCCn1ncc2cc(N3C(=S)N(c4cnc(C#N)c(OC)c4)C(=O)C34CCC4)ccc21 with wild-type Androgen Receptor (AR-wt) (Homo sapiens (Human), UniProt P10275).
Response: 100

Request: Please tell me: Emax of COc1cc(N2C(=O)C3(CCC3)N(c3ccc4c(cnn4CCO)c3)C2=S)cnc1C#N , system wild-type Androgen Receptor (AR-wt) (Homo sapiens (Human), UniProt P10275)?
Response: 101

Request: API: value(readout= Emax, system= wild-type Androgen Receptor (AR-wt) (Homo sapiens (Human), UniProt P10275), query= N#Cc1ncc(N2C(=O)C3(CCC3)N(c3ccc(O[C@@H]4CCN[C@H](C(F)(F)F)C4)cc3)C2=S)cc1C(F)(F)F (racemic) )
Response: 102

Request: Request - read-out Emax | tested on wild-type Androgen Receptor (AR-wt) (Homo sapiens (Human), UniProt P10275) | compound CN1CC2CCC(C1)C2Oc1ccc(N2C(=S)N(c3cnc(C#N)c(C(F)(F)F)c3)C(=O)C23CCC3)cc1 (stereo not drawn)
Response: 103

Request: Test system wild-type Androgen Receptor (AR-wt) (Homo sapiens (Human), UniProt P10275); read-out Emax; what value for COCCn1cc2ccc(N3C(=S)N(c4cnc(C#N)c(C(F)(F)F)c4)C(=O)C34CCC4)cc2n1 ?
Response: 100

Request: Item CN1CCC(n2ncc3cc(N4C(=S)N(c5cnc(C#N)c(C(F)(F)F)c5)C(=O)C45CCC5)ccc32)CC1 with wild-type Androgen Receptor (AR-wt) (Homo sapiens (Human), UniProt P10275) - Emax?
Response: 96.1

Request: Observed Emax on wild-type Androgen Receptor (AR-wt) (Homo sapiens (Human), UniProt P10275) for CN1C2CCC1CC(c1ccc(N3C(=S)N(c4cnc(C#N)c(C(F)(F)F)c4)C(=O)C34CCC4)cc1)C2 (stereo not drawn) , please.
Response: 102

Request: Find the measured Emax: item CC1(Oc2ccc(N3C(=S)N(c4cnc(C#N)c(C(F)(F)F)c4)C(=O)C34CCC4)cc2)CCNCC1 , target or system wild-type Androgen Receptor (AR-wt) (Homo sapiens (Human), UniProt P10275).
Response: 99.9

---

biological target: wild-type Androgen Receptor (AR-wt) (Homo sapiens (Human), UniProt P10275); experiment: LNCaP-AR-wt ANT reporter assay (antagonist mode); assay type: cell-based; details: antagonist mode; pIC50 = −Log10(IC50 in Molar); read-out: LNCaP-AR-wt ANT pIC50 (converted)
endpoint: IC50

Request: Find IC50 (wild-type Androgen Receptor (AR-wt) (Homo sapiens (Human), UniProt P10275)) for the entry Cc1cc(N2C(=O)C3(CCC3)N(c3cnc(OC4CCN(CCO)CC4)nc3)C2=S)cnc1C#N
Response: 891 nM

Request: # returns recorded IC50 (system: wild-type Androgen Receptor (AR-wt) (Homo sapiens (Human), UniProt P10275)) for CC(C)(C)OC(=O)N1CC(F)(F)CC1COc1ccc(N2C(=S)N(c3cnc(C#N)c(C(F)(F)F)c3)C(=O)C23CCC3)cc1 (centres unmarked)
Response: 631 nM

Request: Please state recorded IC50 (tested on wild-type Androgen Receptor (AR-wt) (Homo sapiens (Human), UniProt P10275)) of CCOC(=O)N1CCC(CNC(=O)c2ccc(N3C(=S)N(c4cnc(C#N)c(C(F)(F)F)c4)C(=O)C34CCC4)cc2)CC1
Response: 105 nM

Request: For the record N#Cc1ncc(N2C(=O)C3(CCC3)N(c3ccc(OC4CCNCC4(F)F)cc3)C2=S)cc1C(F)(F)F (racemic) , what value of IC50 is listed for wild-type Androgen Receptor (AR-wt) (Homo sapiens (Human), UniProt P10275)?
Response: 132 nM

Request: API: value(readout=IC50, system=wild-type Androgen Receptor (AR-wt) (Homo sapiens (Human), UniProt P10275)) for record CC(C)(C)OC(=O)N1CCC(n2cc3cc(N4C(=S)N(c5cnc(C#N)c(C(F)(F)F)c5)C(=O)C45CCC5)ccc3n2)CC1
Response: 138 nM

Request: IC50 of N#Cc1ncc(N2C(=O)C3(CCC3)N(c3ccc(O[C@@H]4CCN[C@H](CO)C4)cc3)C2=S)cc1C(F)(F)F (racemic) on wild-type Androgen Receptor (AR-wt) (Homo sapiens (Human), UniProt P10275)?
Response: 372 nM

Request: Recorded IC50 for CC(C)(C)OC(=O)N1CCC(Cn2cc3cc(N4C(=S)N(c5cnc(C#N)c(C(F)(F)F)c5)C(=O)C45CCC5)ccc3n2)CC1 with wild-type Androgen Receptor (AR-wt) (Homo sapiens (Human), UniProt P10275), please?
Response: 282 nM

Request: I'm curious: which IC50 was measured for N#Cc1ncc(N2C(=O)C3(CCC3)N(c3ccc4nn(CCO)cc4c3)C2=S)cc1C(F)(F)F tested on wild-type Androgen Receptor (AR-wt) (Homo sapiens (Human), UniProt P10275)?
Response: 1050 nM

Request: Hello, I am looking for reported IC50 with wild-type Androgen Receptor (AR-wt) (Homo sapiens (Human), UniProt P10275) for COc1cc(N2C(=O)C3(CCC3)N(c3ccc4c(cnn4C4CCN(C(C)=O)CC4)c3)C2=S)cnc1C#N . Could you help?
Response: 135 nM

Request: What IC50 appears in the records for this compound with wild-type Androgen Receptor (AR-wt) (Homo sapiens (Human), UniProt P10275)? N#Cc1ncc(N2C(=O)C3(CCC3)N(c3ccc(OC4C5CCC4CNC5)nc3)C2=S)cc1C(F)(F)F (centres unmarked)
Response: 589 nM

Request: Form field - read-out: IC50; system: wild-type Androgen Receptor (AR-wt) (Homo sapiens (Human), UniProt P10275); submitted item: COCCN1CCC(Oc2ccc(N3C(=S)N(c4cnc(C#N)c(C(F)(F)F)c4)C(=O)C34CCC4)cc2)CC1
Response: 708 nM

Request: Missing value: IC50, wild-type Androgen Receptor (AR-wt) (Homo sapiens (Human), UniProt P10275), entry N#Cc1ncc(N2C(=O)C3(CCC3)N(c3ccc(OC4CCCO4)cc3)C2=S)cc1C(F)(F)F (centres unmarked) . Fill in?
Response: 132 nM

Request: Lab note: need IC50 with wild-type Androgen Receptor (AR-wt) (Homo sapiens (Human), UniProt P10275) for entry CN1CCC(Sc2ccc(N3C(=S)N(c4cnc(C#N)c(C(F)(F)F)c4)C(=O)C34CCC4)cc2)CC1 , please look it up.
Response: 562 nM

Request: Test system wild-type Androgen Receptor (AR-wt) (Homo sapiens (Human), UniProt P10275); read-out IC50; what value for CN1CC[C@@H](CNC(=O)c2ccc(N3C(=S)N(c4cnc(C#N)c(C(F)(F)F)c4)C(=O)C34CCC4)cc2)C1 ?
Response: 1260 nM
